Cited source for all entries: patent US20130109846A1

- testedTarget: human CD28 (human, UniProt P10747 19-220)
- assayRemarks: cell-based or functional assay
Measured MLR assay (EC50), listed per entry for reference.
Please make sure the unit comes right after the number.

>>> recordedresult("1h-99 (other) VH: EVQLLESGGGLVQPGGSLRLSCAASGFTFDSANMTWVRQAPGKGLEWVSWIDDTGTQTYYADSVKGRFTISRDNSKNTLYLQMNSLRAEDTAVYYCAKSPFGPLYGFDYWGQGTLVTVSS")
"2200 nM"

Let us examine a further case.
Data request: Looking for the measured MLR assay (EC50) of 1h-93-2 (other) VH: EVQLLESGGGLVQPGGSLRLSCAASGFTFPLYEMAWVRQAPGKGLEWVSSIMSNGIRTYYADSVKGRFTISRDNSKNTLYLQMNSLRAEDTAVYYCAKRESSSSRTVFDYWGQGTLVTVSS , can you help?
Data returned: 830 nM
